Task for the reader: assign each of the following compounds its reported growth.
Tested on: PC-3 prostate
assay: NCI-60 one-dose screen, 48 h (100 = growth as untreated, 0 = no growth, -100 = all killed)
studyConditions: 10 µM unless noted
About 83,000 compounds went through this panel and 20% of them were active in at least one assay; those are over-represented in the sample as a whole. Calls of active or inactive are those of the source. The calls were made as follows: active = growth percent below 10; inactive = the rest.

Below, 3 compounds whose answers are already recorded.
COC(=O)CC12CC(NC(=O)c3csc([C@@H](C[C@H](C(C)C)N(C)C(=O)[C@@H](NC(=O)[C@H]4CCCCN4C)C(C)C)OC(C)=O)n3)(C1)C2 = 30.2% (inactive)
CNC12C3C4C1C1C2C3C41C(=O)N[C@H](C(=O)N(C)[C@H](C[C@@H](OC(C)=O)c1nc(C(=O)N[C@@H](Cc2ccccc2)C[C@H](C)C(=O)OC)cs1)C(C)C)C1CC1 (some centres not stated) = 16.9% (inactive)
CCCOC(=O)N[C@H]1CCc2c(Br)c(OC)c(OC)c(OC)c2-c2ccc(SC)c(=O)cc21 = 21.1% (inactive)

# batch: return growth for each of the 4 compounds below
1. N/C(=N\N=C\c1ccc(-c2ccccc2)cc1)N[N+](=O)[O-]
2. Clc1ccc(CSC(Cn2ccnc2)c2ccc(Cl)cc2Cl)cc1 (configuration not stated)
3. O=C(CCCCCNC1=CC(=O)c2ccccc2C1=O)NCCC[Te]c1ccccc1
4. COC(=O)[C@@H](C)C[C@H](Cc1ccccc1)NC(=O)c1nc([C@@H](C[C@H](C(C)C)N(C)C(=O)[C@@H](NC(=O)[C@H]2CC(=O)CCN2C)C(C)C)OC(C)=O)sc1C(C)C

1. 29.8% (inactive)
2. 15% (inactive)
3. -0.995% (active)
4. 24.3% (inactive)

###

System: HL-60(TB) leukemia
assay: NCI-60 one-dose screen, 48 h (100 = growth as untreated, 0 = no growth, -100 = all killed)
studyConditions: 10 µM unless noted
About 83,000 compounds went through this panel and 20% of them were active in at least one assay; those are over-represented in the sample as a whole.
Threshold check on growth: at or above -20% gives Y, strictly below gives N.

Worked cases, answers included:
COc1ccc2c(c1)c(-c1nc(-c3c[nH]c4ncccc34)cs1)cn2CCCCN1CCCCC1 = N
CC(C)[C@]12O[C@H]1[C@@H]1O[C@]13[C@]1(O[C@H]1C[C@H]1c4c(C(=O)c5ccccc5)oc(OC(=O)c5ccccc5)c4CC[C@@]13C)[C@@H]2O = N
COC(=O)[C@@H](C)C[C@H](Cc1ccccc1)NC(=O)c1csc([C@@H](C[C@H](C(C)C)N(C)C(=O)C2(NC(=O)[C@H]3CCCCN3C)CC2)OC(C)=O)n1 = N
CC[C@H](C)[C@H](NC(=O)[C@H]1CCCCN1C)C(=O)N(C)[C@H](C[C@@H](OC(C)=O)c1nc(C(=O)N[C@@H](Cc2ccccc2)C[C@H](C)C(=O)OC)cs1)C(C)C = N

Is reported growth greater than or equal to -20% here: Cc1sc2c(c1C)C(c1ccc(Cl)cc1)=N[C@@H](CC(=O)OC(C)(C)C)c1nnc(C)n1-2
Y

Continue with O=C1CC2(CC3(Cl)C(Cl)=C(Cl)C2(Cl)C3(Cl)Cl)C(=O)O1 (stereo not given)
Y

Continue with C[C@]12CC[C@H]3[C@@H](CC4SC(N)=NC45C/C(=N/NC(N)=O)CC[C@]35C)[C@@H]1CCC2=O (stereo not given in full)
Y
